Origin of the recorded values: patent US9108978B2

biological target: biotin protein ligase from S. aureus (SaBPL) (Staphylococcus aureus); experiment: BPL enzyme inhibition assay (3H-biotin incorporation), SaBPL; format: biochemical; conditions: read-out: Ki SaBPL
Sequence (A0A3A5LBF0 1-323): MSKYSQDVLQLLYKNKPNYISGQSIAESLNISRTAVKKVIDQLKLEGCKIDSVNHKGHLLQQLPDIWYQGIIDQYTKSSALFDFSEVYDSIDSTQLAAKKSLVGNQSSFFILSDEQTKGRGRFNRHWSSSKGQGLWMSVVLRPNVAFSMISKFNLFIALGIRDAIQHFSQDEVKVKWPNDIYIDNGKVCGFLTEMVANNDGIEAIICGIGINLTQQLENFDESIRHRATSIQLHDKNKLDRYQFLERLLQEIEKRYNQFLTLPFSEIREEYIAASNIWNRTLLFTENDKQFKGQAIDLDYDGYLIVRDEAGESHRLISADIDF
Reported endpoint: Ki (nM)
Enter your answer as a number in nM; do not include the unit.

Compound | Ki (nM)
Cc1ccc2oc(=O)n(CCCCn3cc(CCCCC[C@@H]4SC[C@@H]5NC(=O)N[C@@H]54)nn3)c2c1 [6.09] | 90

Task: Give the value of Ki reported for the following: CC1(C)O[C@@H]2[C@H](O1)[C@@H](n1cnc3c(N)ncnc31)O[C@H]2Cn1cc(CCCCC[C@@H]2SC[C@@H]3NC(=O)N[C@@H]32)nn1 [3.25]
Result: 1830
